# TARGET_UNDER_TEST: UniProtKB Q9H7B4
# TEST_PROTOCOL: SMYD3 biochemical assay (SPA, 3H-SAM methylation of MEKK2 protein substrate)
# CONDITION_NOTES: average of n = 1 to n = 50; read-out: SMYD3 Biochem IC50
Returns: string. Value is met if measured IC50 is below 200 nM, and not met if it is greater than or equal to it.

Example cases with answers are listed next.
[[record]]
molecule = "COCCCN1CCC(CS(=O)(=O)N2CC[C@H](NC(=O)c3cc(C4CC4)on3)C[C@@H]2Cc2ccccc2)CC1"
class_name = "not met"

[[record]]
molecule = "CN1CCC(N(C)S(=O)(=O)N2[C@@H]3CCC[C@H]2C[C@H](NC(=O)c2cc(C4CC4)on2)C3)CC1"
class_name = "not met"

[[record]]
molecule = "COCCCN1CCC(CS(=O)(=O)N2CC[C@@H](NC(=O)c3cc(C4CC4)on3)[C@@H](C)C2)CC1"
class_name = "met"


**Q:** Take the molecule O=C(N[C@@H]1CCN(S(=O)(=O)CC2CCNCC2)[C@@H](Cc2ccccc2)C1)c1cc(C2CC2)on1 and say whether its IC50 is less than 200 nM.
**A:** not met

**Q:** Take the molecule CN1CCC(N(C)S(=O)(=O)N2[C@@H]3CCC[C@@H]2CC(NC(=O)c2cc(C4CC4)on2)C3)CC1 (some centres unmarked) and say whether its IC50 is less than 200 nM.
**A:** not met

**Q:** Take the molecule CNCc1ccc(C(=O)N2CC[C@@H](NC(=O)c3cc(C4CC4)on3)C[C@H]2C)cc1 and say whether its IC50 is less than 200 nM.
**A:** met

**Q:** Take the molecule C[C@@H]1CN(S(=O)(=O)CCCN)[C@H](C)C[C@@H]1NC(=O)c1cc(C2CC2)on1 and say whether its IC50 is less than 200 nM.
**A:** met

**Q:** Take the molecule O=C(N[C@H]1CCN(S(=O)(=O)CC2CCCN2)[C@@H](Cc2ccccc2)C1)c1cc(C2CC2)on1 (some centres unmarked) and say whether its IC50 is less than 200 nM.
**A:** not met

**Q:** Take the molecule O=C(N[C@H]1C[C@H]2CC[C@@H](C1)N2S(=O)(=O)CCN1CCC(OCc2ccccc2)C1)c1cc(C2CC2)on1 (some centres unmarked) and say whether its IC50 is less than 200 nM.
**A:** not met

**Q:** Take the molecule CN(CCN1CCOCC1)CCS(=O)(=O)N1[C@@H]2CC[C@H]1C[C@@H](NC(=O)c1cc(C3CC3)on1)C2 and say whether its IC50 is less than 200 nM.
**A:** not met

**Q:** Take the molecule O=C(N[C@H]1C[C@H]2CC[C@@H](C1)N2S(=O)(=O)CCCNCCN1CCOCC1)c1cc(C2CC2)on1 and say whether its IC50 is less than 200 nM.
**A:** met

**Q:** Take the molecule C[C@H]1C[C@@H](NC(=O)c2cc(C3CC3)on2)CCN1S(=O)(=O)C(CCN)c1ccccc1 (some centres unmarked) and say whether its IC50 is less than 200 nM.
**A:** met

**Q:** Take the molecule CN1CCN(S(=O)(=O)N2[C@@H]3CC[C@H]2C[C@@H](NC(=O)c2cc(C4CC4)on2)C3)CC1(C)C and say whether its IC50 is less than 200 nM.
**A:** met

**Q:** Take the molecule COCCN1CCC(CS(=O)(=O)N2CC[C@H](NC(=O)c3cc(C4CC4)on3)C[C@@H]2Cc2ccccc2)CC1 and say whether its IC50 is less than 200 nM.
**A:** not met

The origin of these recorded values is patent US10577363B2.
